Target: Nuclear receptor subfamily 1 group I member 2 (Homo sapiens) (UniProt O75469)
Sequence (O75469 whole entry, looked up): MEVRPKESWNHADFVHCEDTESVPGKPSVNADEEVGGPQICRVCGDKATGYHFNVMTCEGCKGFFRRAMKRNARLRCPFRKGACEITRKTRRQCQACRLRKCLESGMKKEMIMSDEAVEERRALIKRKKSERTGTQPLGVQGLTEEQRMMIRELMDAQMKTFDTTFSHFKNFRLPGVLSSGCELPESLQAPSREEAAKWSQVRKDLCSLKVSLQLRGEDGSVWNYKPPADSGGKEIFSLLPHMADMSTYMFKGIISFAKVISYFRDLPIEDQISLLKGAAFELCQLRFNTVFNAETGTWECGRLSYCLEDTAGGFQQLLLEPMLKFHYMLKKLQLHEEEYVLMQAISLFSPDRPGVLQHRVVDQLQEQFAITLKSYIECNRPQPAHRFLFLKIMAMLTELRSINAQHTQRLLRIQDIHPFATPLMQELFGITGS
Test: Human pregnane X receptor (PXR) small molecule agonists, qHTS assay (AID 1346982); also: nearly all actives have a fitted effect of over 35% in size; as to activation: % is scaled to controls: 0 for no effect and ±100 for the full control effect
Details: PXR-Luc HepG2, CYP3A4 luciferase reporter, 24 h; series mostly up to 92.4 µM
Inconclusive results are not listed. Calls of active or inactive are those of the source. Calls follow the shape of the dose curve; as a rule, active = well fitted activation curve with a large enough effect in the repeat runs; inconclusive = weak or mixed curves; inactive = no such curve, though single readings can be large or run the other way.
Give one outcome, nothing more. List: Y = active, N = inactive

Take a look at these entries with their results.
CCN(CC)CCOC(=O)C(O)(c1ccccc1)c1ccccc1: N
CNC(=O)Oc1cc(C)c(N(C)C)c(C)c1: Y
Clc1ccc(C(Cl)(Cl)Cl)cn1: N

Called result for C1CN2CCC1CC2 N

Called result for CCC(C(N)=O)N1CCCC1=O (configuration not stated) N

Called result for Cn1c(N)nc2c3cccnc3ccc21 Y

Called result for NC(=O)CS(=O)C(c1ccccc1)c1ccccc1 (configuration not stated) N

Called result for OP(O)c1ccccc1 N

Called result for Cl/C=C/CCl N

====

Assay: qHTS assay to test for compound auto fluorescence at 590 nm (red) in HEK293 cells (AID 720679); also: % is scaled to controls: 0 for no effect and ±100 for the full control effect
Settings: red autofluorescence 540/590 nm; series mostly up to 91.3 µM
Active and inactive are the calls of the source. Calls follow the shape of the dose curve; as a rule, active = well fitted curve in the direction sought with a large enough effect in the repeat runs; inconclusive = weak or mixed curves; inactive = flat fitted curve, though single readings scatter.
quantityMeasured: fluorescence, % of fluorescent control

Example cases with answers are listed next.
CC(C)C(C)(N)C#N (stereo not drawn): inactive
CN(C)C(=O)Oc1cc(OC(=O)N(C)C)cc(C(O)CNC(C)(C)C)c1 (stereo not drawn): 0.104% [at 18.6 µM] (inactive)
ClCC1CO1 (stereo not drawn): inactive
CS(=O)(=O)Cl: inactive
O=C(Cl)C(Cl)(Cl)Cl: inactive

Just so you know, measured fluorescence, % of fluorescent control for CCOc1cc(OP(=S)(OC)OC)nc(CC)n1 came out at inactive

Just so you know, measured fluorescence, % of fluorescent control for C=CC=O came out at inactive

Just so you know, measured fluorescence, % of fluorescent control for CC(Cl)(Cl)Cl came out at inactive

Just so you know, measured fluorescence, % of fluorescent control for O=C(Cl)CCl came out at inactive

Just so you know, measured fluorescence, % of fluorescent control for CC[C@H](O)C(C[C@H](C)N(C)C)(c1ccccc1)c1ccccc1 came out at inactive

Just so you know, measured fluorescence, % of fluorescent control for CCCCCCCC(=O)Cl came out at inactive

Just so you know, measured fluorescence, % of fluorescent control for CCN(CCO)CCO came out at inactive

Just so you know, measured fluorescence, % of fluorescent control for COC1=CC(=O)O[C@@H](/C=C/c2ccccc2)C1 came out at inactive

====

Biological target: Nuclear receptor subfamily 1 group I member 3 (Homo sapiens)
Assay: qHTS assay to identify small molecule agonists of the constitutive androstane receptor (CAR) signaling pathway (AID 1224839); also: nearly all actives have a fitted effect of over 15% in size;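 as to activation: HepG2 cells stably carrying human CAR and a CYP2B6 luciferase reporter; % is scaled to controls: 0 for no effect and ±100 for the full control effect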
Conditions: HepG2 hCAR CYP2B6-luciferase, agonist mode, 24 h; series mostly up to 92.4 µM
Records with an inconclusive call do not appear. Calls of active or inactive are those of the source. Calls come from the whole dose curve; as a rule, active = well fitted activation curve with a large enough effect in the repeat runs; inconclusive = weak or mixed curves; inactive = no such curve, though single readings can be large or run the other way.
Give one outcome, nothing more. List: active, inactive

Take a look at these entries with their results.
N[C@@H](Cc1ccc(Oc2cc(I)c(O)c(I)c2)c(I)c1)C(=O)O: inactive
CC(O)CCl (centres undefined): inactive
O=C1CC(=O)NC(=O)N1: inactive
Cc1ccc2cc(C)ccc2c1: inactive
CCSC(=O)Cl: inactive
C[C@H]1CCCC(=O)CCC/C=C/c2cc(O)cc(O)c2C(=O)O1: inactive
CCNP(=S)(OC)O/C(C)=C/C(=O)OC(C)C (centres undefined): active
CCC(=O)OC1(c2ccccc2)CCN(C)CC1: inactive

Kindly review the next compound as well.
Called result for C[N+]1(C)CCCCC1 inactive

====

Target: Cytochrome P450 2C9 (Homo sapiens)
Assay: Cytochrome P450 Family 2 Subfamily C Member 9 (CYP2C9) small molecule antagonists: luciferase reporter qHTS assay (AID 1671198); also: nearly all actives have a fitted effect of over 50% in size
Conditions: P450-Glo CYP2C9 enzyme assay, luciferin luminescence; series mostly up to 115 µM
Results filed as inconclusive are left out. Calls of active or inactive are those of the source. Calls come from the whole dose curve; as a rule, active = well fitted inhibition curve with a large enough effect in the repeat runs; inconclusive = weak or mixed curves; inactive = no such curve, though single readings can be large or run the other way.
Give one outcome, nothing more. List: active, inactive

Take a look at these entries with their results.
NCCOS(=O)(=O)O: inactive
OP(O)c1ccccc1: inactive
CN(C)C1CCCCC1: inactive
CCC1(c2ccccc2)CCC(=O)NC1=O (stereo not given): inactive
c1ccc2c(c1)CCNC2: active

Called result for ClCCN1CCCC1 inactive

Called result for CC(C)[C@]12CC(=O)[C@H](C)[C@H]1C2 inactive

Called result for CCNc1nc(NCC)nc(SC)n1 inactive

Called result for ClCOCCl inactive

Called result for CC[C@H](O)C(C[C@H](C)N(C)C)(c1ccccc1)c1ccccc1 inactive

Called result for Cn1c(CCCC(=O)O)nc2cc(N(CCCl)CCCl)ccc21 inactive

Called result for C=CCc1cc(OC)c2c(c1)OCO2 active

Called result for CCOC(=O)C(Cl)Cc1cc(-n2nc(C)n(C(F)F)c2=O)c(F)cc1Cl (stereo not given) active

Called result for BrCCc1ccccc1 inactive

Called result for C=CC1(C)OC(=O)N(c2cc(Cl)cc(Cl)c2)C1=O (stereo not given) inactive

Called result for [P]#[In] inactive

Called result for Clc1ccc(C(Cl)(Cl)Cl)cn1 inactive

Called result for Cc1ccc(S(=O)(=O)N[C@@H](CCCCN)C(=O)CCl)cc1 inactive

Called result for CCC(C)(C#N)N=NC(C)(C#N)CC (stereo not given) inactive

Called result for CCN[C@H](C)Cc1cccc(C(F)(F)F)c1 inactive

Called result for O=C/C=C/c1ccco1 inactive

====

Biological target: Estrogen receptor beta (Homo sapiens) (UniProt Q92731)
Sequence (Q92731 whole entry, looked up): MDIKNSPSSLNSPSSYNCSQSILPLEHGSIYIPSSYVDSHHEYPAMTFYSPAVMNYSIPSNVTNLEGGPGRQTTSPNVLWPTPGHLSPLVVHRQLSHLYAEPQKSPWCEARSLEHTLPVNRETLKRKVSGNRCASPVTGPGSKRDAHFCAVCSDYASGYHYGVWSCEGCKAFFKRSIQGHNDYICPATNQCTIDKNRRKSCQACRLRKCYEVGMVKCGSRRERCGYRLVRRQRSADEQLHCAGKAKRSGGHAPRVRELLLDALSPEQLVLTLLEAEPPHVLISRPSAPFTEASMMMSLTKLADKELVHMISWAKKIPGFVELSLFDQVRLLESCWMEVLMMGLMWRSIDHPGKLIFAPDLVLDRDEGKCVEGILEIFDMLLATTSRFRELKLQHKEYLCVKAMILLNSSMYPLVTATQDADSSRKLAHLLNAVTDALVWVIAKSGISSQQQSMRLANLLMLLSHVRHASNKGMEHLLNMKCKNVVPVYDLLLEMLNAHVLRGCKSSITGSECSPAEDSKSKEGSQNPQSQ
Assay: qHTS assay to identify small molecule agonists of the estrogen receptor beta (ER-beta) signaling pathway (AID 1259377); as to activation: % is scaled to controls: 0 for no effect and ±100 for the full control effect
Settings: ER-beta-UAS-bla HEK293T, beta-lactamase FRET ratio, 16 h; series mostly up to 92.4 µM
Records with an inconclusive call do not appear. Active and inactive are the calls of the source. Calls come from the whole dose curve; as a rule, active = well fitted activation curve with a large enough effect in the signal ratio in the repeat runs (not every such curve was filed as active); inconclusive = weak or mixed curves, or effect the other way; inactive = flat fitted curve, though single readings scatter; the % refers to the signal ratio.
Give one outcome, nothing more. List: active, inactive

CC1NCCOC1c1ccccc1 (stereo not drawn): inactive
CC(C)(C1CCC(O)CC1)C1CCC(O)CC1 (stereo not drawn): active
CCOC(=O)CCl: inactive
Cc1ccc2cc(C)ccc2c1: inactive
OP(O)c1ccccc1: inactive
CCOC(=O)c1ncn2c1CN(C)C(=O)c1c(I)cccc1-2: inactive
C=C(C)[C@H]1CN[C@H](C(=O)O)[C@H]1CC(=O)O: inactive
CC#Cc1cc(C)nc(Nc2ccccc2)n1: inactive
CCN(CCO)CCO: inactive
Oc1ccc(Cc2ccc(O)cc2)cc1: active

Called result for O=C(O)C(F)(F)C(F)(F)C(F)(F)C(F)(F)C(F)(F)C(F)(F)F inactive

Called result for C=CC1(C)OC(=O)N(c2cc(Cl)cc(Cl)c2)C1=O (stereo not drawn) inactive

====

Experiment: qHTS RealTime-Glo MT Cell Viability Assay in HEK293 cells - 40 hour (AID 1224874); also: % is scaled to controls: 0 for no effect and ±100 for the full control effect; nearly all actives have a fitted effect of over 50% in size
Conditions: RealTime-Glo luminescence; hits give low values
Records with an inconclusive call do not appear.
quantityMeasured: max response (%)
Form entry: value (%) — number only.

Example cases with answers are listed next.
CCCOc1nn(C(=O)NS(=O)(=O)c2ccccc2C(=O)OC)c(=O)n1C: 22.1
Cn1c(N)nc2c3cccnc3ccc21: -11
COP(=O)(OC)O/C(C)=C/C(=O)N(C)C: 13.5

Just so you know, measured max response for CC(C)(C)NC[C@H](O)c1ccc(O)cc1Cl came out at 4.05

Just so you know, measured max response for CC(C)N(Cc1ccccc1)C(=O)C(C)(C)C came out at -9.28

Just so you know, measured max response for C=C(Cl)CCl came out at -1.15

Just so you know, measured max response for O=[N+]([O-])c1cccc(CCl)c1 came out at 6.77

Just so you know, measured max response for CC(C)(N)Cc1ccc(Cl)cc1 came out at 6.61

Just so you know, measured max response for O=C1CC(=O)NC(=O)N1 came out at 12.1

====

Target: Cytochrome P450 1A2 (Homo sapiens)
Experiment: Cytochrome P450 Family 1 Subfamily A Member 2 (CYP1A2) small molecule antagonists: luciferase reporter qHTS assay (AID 1671199); also: nearly all actives have a fitted effect of over 50% in size
Details: P450-Glo CYP1A2 enzyme, luciferin luminescence, 1 h; series mostly up to 115 µM
Inconclusive results are not listed. The source made the active and inactive calls. Calls come from the whole dose curve; as a rule, active = well fitted inhibition curve with a large enough effect in the repeat runs; inconclusive = weak or mixed curves; inactive = no such curve, though single readings can be large or run the other way.
Give one outcome, nothing more. List: active, inactive

CC(C)(C)C(=O)Cl: inactive
O=C1CC(=O)NC(=O)N1: inactive
CCNc1nc(Cl)nc(NC(C)(C)C)n1: active
C/C=C/CC#N: active
C=CCN1CC[C@]23CCCC[C@H]2[C@H]1Cc1ccc(O)cc13: inactive

Called result for CCOC(=O)Nc1cccc(OC(=O)Nc2ccccc2)c1 active

====

Experiment: qHTS assay for identifying genotoxic compounds that show differential cytotoxicity against isogenic chicken DT40 cell lines with known DNA damage response pathways - Rev3 mutant cell line (AID 743014); also: nearly all actives have a fitted effect of over 55% in size
Settings: chicken DT40 Rev3-/- viability, CellTiter-Glo, 40 h; series mostly up to 68.4 µM
Records with an inconclusive call do not appear. Calls of active or inactive are those of the source. Calls come from the whole dose curve; as a rule, active = well fitted cell-killing curve with a large enough effect in the repeat runs; inconclusive = weak or mixed curves, or effect the other way; inactive = no such curve, though single readings can be large or run the other way.
Give one outcome, nothing more. List: active, inactive

Take a look at these entries with their results.
CCN(CC)CCOC(=O)C(O)(c1ccccc1)c1ccccc1: inactive
CCCN1CCC[C@@H]2Cc3nc(N)ncc3C[C@H]21: inactive
CC#Cc1cc(C)nc(Nc2ccccc2)n1: active
CC(C)C(C)(N)C#N (stereo not drawn): inactive
O=c1[nH]oc2c1CCNC2: inactive
O=C(Cl)c1ccccc1: inactive

Called result for CCNP(=S)(OC)O/C(C)=C/C(=O)OC(C)C (stereo not drawn) active

Called result for CCCCOC(C)=O inactive
